System Under Test: Adenosine receptor A3 (Rattus norvegicus)
Sequence (P28647 whole entry): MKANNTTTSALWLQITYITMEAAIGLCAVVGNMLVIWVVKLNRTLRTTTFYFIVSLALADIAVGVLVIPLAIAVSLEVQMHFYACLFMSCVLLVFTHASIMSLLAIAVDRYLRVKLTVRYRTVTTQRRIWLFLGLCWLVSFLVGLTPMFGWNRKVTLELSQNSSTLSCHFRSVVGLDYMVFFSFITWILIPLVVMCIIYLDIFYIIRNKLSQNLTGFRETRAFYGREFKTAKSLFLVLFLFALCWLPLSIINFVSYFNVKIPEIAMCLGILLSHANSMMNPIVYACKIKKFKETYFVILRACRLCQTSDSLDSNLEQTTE
Test Protocol: biochemical
Description: Binding affinity determined by displacement of specific binding of [125I]N-(4-amino-3-iodophenethyl)-adenosine in membranes of CHO cells stably transfected with the rat adenosine A3 receptor
Measured Quantity: pKi
In textbook form, pKi equals minus log to base ten of the concentration in mol/L.

# example entries with known answers
[
  {
    "Compound": "NNc1ncnc2c1ncn2[C@@H]1O[C@H](CO)[C@@H](O)[C@H]1O",
    "System Under Test": "Adenosine receptor A3 (Rattus norvegicus)",
    "Reported Value": 4.77
  },
  {
    "Compound": "Nc1nc(F)nc2c1ncn2[C@@H]1O[C@H](CO)[C@@H](O)[C@@H]1O",
    "System Under Test": "Adenosine receptor A3 (Rattus norvegicus)",
    "Reported Value": 4.98
  },
  {
    "Compound": "Nc1ncnc2c1ncn2[C@@H]1O[C@H](COS(N)(=O)=O)[C@@H](O)[C@H]1O",
    "System Under Test": "Adenosine receptor A3 (Rattus norvegicus)",
    "Reported Value": 4.96
  },
  {
    "Compound": "CNC(=O)[C@@]1(C)O[C@@H](n2cnc3c(NCc4ccccc4)ncnc32)[C@H](O)[C@@H]1O",
    "System Under Test": "Adenosine receptor A3 (Rattus norvegicus)",
    "Reported Value": 6.22
  },
  {
    "Compound": "Nc1nc(Cl)nc2c1ncn2[C@@H]1S[C@H](CO)[C@@H](O)[C@@H]1O",
    "System Under Test": "Adenosine receptor A3 (Rattus norvegicus)",
    "Reported Value": 4.31
  }
]

Please look up its pKi: OC[C@H]1O[C@@H](n2cnc3c(NC4COc5ccccc5O4)ncnc32)[C@H](O)[C@@H]1O (some centres undefined) 5.83

Need pKi of CCCCc1ccc(Nc2nc(N)c3ccn(C4CC(CO)C(O)C4O)c3n2)cc1 (centres undefined) , thanks. 4.15

Param item = Nc1nc(N)c2ncn(C3COC(CO)C3)c2n1 (centres undefined) ; retrieve measured pKi. 3.70

Any idea what its pKi is? The compound is Nc1nc(Cl)nc2c1ncn2[C@@H]1O[C@H](CO)[C@@H](O)[C@H]1F 4.08

---

System Under Test: UniProt:P25099
Sequence (P25099 whole entry): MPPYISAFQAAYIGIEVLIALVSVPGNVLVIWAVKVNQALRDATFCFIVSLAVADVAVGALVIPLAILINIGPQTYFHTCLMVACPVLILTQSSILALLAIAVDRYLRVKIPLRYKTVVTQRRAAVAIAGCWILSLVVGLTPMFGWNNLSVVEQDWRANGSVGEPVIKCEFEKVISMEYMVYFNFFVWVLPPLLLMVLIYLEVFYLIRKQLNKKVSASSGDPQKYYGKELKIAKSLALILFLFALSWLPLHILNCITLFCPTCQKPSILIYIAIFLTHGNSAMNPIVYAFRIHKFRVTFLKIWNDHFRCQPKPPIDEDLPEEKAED
Test Protocol: Binding affinity determined on Adenosine A1 receptor in rat brain membranes by measuring displacement of specific [3H]PIA as radioligand.
Assay type: cell membranes
Design: concentration or dose not given beside the values
Measured Quantity: Displacement
# output: number + unit

Illustrative cases are given below, each with its answer.
[
  {
    "Compound": "Nc1ncnc2c1ncn2C1C=CC(O)C1 (centres undefined)",
    "Displacement": "37%"
  },
  {
    "Compound": "Nc1ncnc2c1ncn2[C@@H]1C[C@H](CO)[C@@H](O)[C@H]1O [ARISTEROMYCIN]",
    "Displacement": "3%"
  },
  {
    "Compound": "Nc1ncnc2c1ccn2[C@H]1C[C@@H](O)[C@H](O)[C@@H]1O",
    "Displacement": "0%"
  },
  {
    "Compound": "Nc1ncnc2c1ncn2[C@H]1C[C@H](O)[C@@H](CO)O1",
    "Displacement": "31%"
  },
  {
    "Compound": "CO[C@@H]1[C@H](O)[C@@H](CO)O[C@H]1n1cnc2c(N)ncnc21",
    "Displacement": "29%"
  }
]

Given the entry Nc1nccc2c1ncn2C1CC(O)C(O)C1O (centres undefined) , report its measured Displacement. 4%

Need Displacement, item CO[C@H]1[C@@H](O)[C@H](n2cnc3c(N)ncnc32)O[C@@H]1CO 0%

Value lookup for Displacement; key = Nc1ncnc2c1nc(N)n2[C@@H]1O[C@H](CO)[C@@H](O)[C@H]1O 53%

Please report the recorded Displacement for Nc1nc(N)c2ncn(C3COC(CO)C3)c2n1 (centres undefined) . 0%

---

System Under Test: Adenosine receptor A2a (Rattus norvegicus, UniProt P30543)
Sequence (P30543 whole entry): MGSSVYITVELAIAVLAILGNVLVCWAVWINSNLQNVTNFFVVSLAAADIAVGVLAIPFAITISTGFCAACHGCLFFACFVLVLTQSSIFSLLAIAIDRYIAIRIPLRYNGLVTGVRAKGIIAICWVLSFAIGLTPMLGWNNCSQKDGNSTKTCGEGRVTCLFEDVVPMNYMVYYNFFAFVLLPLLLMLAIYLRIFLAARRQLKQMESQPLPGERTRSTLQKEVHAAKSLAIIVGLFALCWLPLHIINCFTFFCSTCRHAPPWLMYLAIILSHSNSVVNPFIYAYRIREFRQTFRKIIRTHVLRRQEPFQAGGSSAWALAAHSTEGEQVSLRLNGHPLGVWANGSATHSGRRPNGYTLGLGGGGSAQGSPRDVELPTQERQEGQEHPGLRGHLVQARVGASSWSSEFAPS
Measured pKi values are reported for all entries that follow.
Recall that pKi is obtained by taking minus log10 of the concentration measured in molar.

# example entries with known answers
[
  {
    "Molecule": "CCCCNc1nc2c(N)ncnc2n1[C@@H]1O[C@H](CO)[C@@H](O)[C@H]1O",
    "pKi": 4.94
  },
  {
    "Molecule": "Nc1nc(N)c2ncn([C@@H]3CCC[C@H]3O)c2n1",
    "pKi": 4.68
  },
  {
    "Molecule": "CC1CC(n2cnc3c(N)ncnc32)C(O)C1O (stereo not given)",
    "pKi": 5.37
  },
  {
    "Molecule": "Nc1nc(F)nc2c1ncn2[C@@H]1O[C@H](CO)[C@@H](O)[C@@H]1O [FLUDARABINE]",
    "pKi": 7.55
  },
  {
    "Molecule": "Nc1ncnc2c1ncn2[C@H]1C[C@@H](O)[C@H](O)[C@@H]1O",
    "pKi": 5.07
  },
  {
    "Molecule": "OC[C@H]1O[C@@H](n2cnc3c(NCc4ccco4)ncnc32)[C@H](O)[C@@H]1O [KINETIN RIBOSIDE]",
    "pKi": 6.89
  },
  {
    "Molecule": "Nc1ncnc2c1nc(N)n2[C@@H]1O[C@H](CO)[C@@H](O)[C@H]1O",
    "pKi": 4.62
  },
  {
    "Molecule": "Nc1nc(Cl)nc2c1ncn2C1CC(O)C(CO)S1 (stereo not given)",
    "pKi": 4.89
  }
]

Notebook: pull reported pKi for Adenosine receptor A2a (Rattus norvegicus, UniProt P30543), entry Nc1nc(Cl)nc2c1ncn2[C@@H]1S[C@H](CO)[C@@H](O)[C@H]1O 7.70

Lookup: pKi / Adenosine receptor A2a (Rattus norvegicus, UniProt P30543) / Nc1ncnc2c1ncn2[C@@H]1C[C@H](O)[C@@H](O)[C@H]1O [NORARISTEROMYCIN] 6.16

Under Adenosine receptor A2a (Rattus norvegicus, UniProt P30543): pKi value of CCCCC#Cc1nc(N)c2ncn([C@@H]3O[C@H](C(=O)NCC)[C@@H](O)[C@H]3O)c2n1 ? 8.66

API: value(readout= pKi, system= Adenosine receptor A2a (Rattus norvegicus, UniProt P30543), query= CNC(=O)[C@@]1(C)O[C@@H](n2cnc3c(NCc4ccccc4)ncnc32)[C@H](O)[C@@H]1O ) 4.27

Find the measured pKi: item Nc1cc(Cl)nc2c1ncn2C1CCC(CO)O1 (stereo not given) , target or system Adenosine receptor A2a (Rattus norvegicus, UniProt P30543). 4.26

API: value(readout= pKi, system= Adenosine receptor A2a (Rattus norvegicus, UniProt P30543), query= Nc1nc(Cl)nc2c1ncn2[C@H]1C[C@H](O)[C@@H](CO)O1 [CLADRIBINE] ) 4.69

Adenosine receptor A2a (Rattus norvegicus, UniProt P30543) / pKi / Nc1nc(Cl)nc2c1ncn2[C@@H]1O[C@H](CO)[C@@H](O)[C@H]1F : value? 6.05

---

System Under Test: Adenosine receptor A3 (Rattus norvegicus)
Test Protocol: biochemical
Labelling: Ki reported below 20 µM becomes Yes; at or above becomes No.

[
  {
    "Molecule": "CCNC(=O)[C@H]1O[C@@H](n2cnc3c(N)ccnc32)[C@H](O)[C@@H]1O",
    "Assigned Label": "Yes"
  },
  {
    "Molecule": "Nc1nc(N)c2ncn([C@@H]3CCC[C@H]3O)c2n1",
    "Assigned Label": "No"
  },
  {
    "Molecule": "Nc1ncnc2c1ncn2[C@@H]1C[C@H](CO)[C@@H](O)[C@H]1O [ARISTEROMYCIN]",
    "Assigned Label": "No"
  },
  {
    "Molecule": "Nc1nc(NCCc2ccccc2)nc2c1ncn2C1CC(O)C(O)C1O (stereo not given)",
    "Assigned Label": "No"
  },
  {
    "Molecule": "Cc1ccccc1CNc1ncnc2c1ncn2[C@@H]1O[C@H](CO)[C@@H](O)[C@H]1O",
    "Assigned Label": "Yes"
  }
]

# strict comparison: is reported Ki < 20 µM? input = Nc1cc(Cl)nc2c1ncn2[C@@H]1O[C@H](CO)[C@@H](O)[C@H]1O Yes

Given Nc1ncnc2c1ncn2C1C=CC(O)C1 (stereo not given) , is recorded Ki strictly lower than 20 µM? No

Dear reviewer, please state whether OC[C@H]1O[C@@H](n2cnc3c(NCc4ccco4)ncnc32)[C@H](O)[C@@H]1O [KINETIN RIBOSIDE] has Ki strictly beneath 20 µM. Yes

Find out if reported Ki for Nc1nc(Cl)nc2c1ncn2[C@@H]1S[C@H](CO)[C@@H](O)[C@H]1O is less than 20 µM Yes

---

// reported Displacement per item
System Under Test: Adenosine receptor A3 (Rattus norvegicus)
Assay type: cell membranes
Design: concentration or dose not given beside the values
Study Conditions: CHO
All answers are understood in %, so give the number only.

Please look up its Displacement: C[C@@]1(O)[C@@H](CO)O[C@@H](n2cnc3c(N)ncnc32)[C@@H]1O 9

Report Displacement for Nc1ncnc2c1nc(N)n2[C@@H]1O[C@H](CO)[C@@H](O)[C@H]1O please. 26

// lookup Displacement for C[C@]1(CO)OC(n2cnc3c(N)ncnc32)[C@H](O)[C@@H]1O (stereo not given in full) 8

Fill in: Displacement of CCCCNc1nc2c(N)ncnc2n1[C@@H]1O[C@H](CO)[C@@H](O)[C@H]1O is ___ 31

# get_value(readout='Displacement', item= Nc1ncnc2c1ncn2[C@@H]1O[C@H](CO)[C@@H](O)[C@@H]1O ) 24
